# collection of Ki values tested on human Adenosine A3 receptor (Homo sapiens, UniProt P0DMS8)
# Sequence (P0DMS8 whole entry): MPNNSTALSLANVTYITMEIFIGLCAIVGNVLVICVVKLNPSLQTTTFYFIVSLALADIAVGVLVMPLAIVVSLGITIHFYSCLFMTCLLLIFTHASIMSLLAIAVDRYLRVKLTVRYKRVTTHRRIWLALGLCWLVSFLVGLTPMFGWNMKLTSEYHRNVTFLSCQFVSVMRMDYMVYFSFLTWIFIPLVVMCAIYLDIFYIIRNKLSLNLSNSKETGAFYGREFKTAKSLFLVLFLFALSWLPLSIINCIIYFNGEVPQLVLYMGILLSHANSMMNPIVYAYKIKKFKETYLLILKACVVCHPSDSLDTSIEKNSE

Prompt line: Given the entry Cc1cc(-c2c(-c3cccc(C#N)c3)nn3ccc(N4CC[C@@H](C(=O)O)C4)nc23)cc(Cl)n1 [Example 2.36] , report its measured Ki.
Response line: > 1000 nM

Prompt line: Given the entry Cc1cc(-c2c(-c3cccc(C#N)c3)nn3ccc(C(=O)N[C@H]4C[C@@H](O)C4)nc23)cc(Cl)n1 [Example 6.20] , report its measured Ki.
Response line: > 1000 nM

Prompt line: Given the entry N#Cc1c(-c2cnco2)nn2ccc(N3CCN(CCF)CC3)nc12 [Example 62] , report its measured Ki.
Response line: > 1000 nM

Prompt line: Given the entry Cc1cc(-c2c(-c3cccc(C#N)c3)nn3ccc(N4CCC5(CC4)CNC(=O)C5)nc23)cc(C)n1 [Example 105] , report its measured Ki.
Response line: > 1000 nM

Prompt line: Given the entry Cc1cc(-c2c(-c3cccc(C#N)c3)nn3ccc(C(=O)N[C@H]4CNC[C@@H]4O)nc23)cc(Cl)n1 [Example 7.5] , report its measured Ki.
Response line: > 1000 nM

Prompt line: Given the entry N#Cc1c(-c2ccc(F)cc2)nn2ccc(NCc3ccccc3)nc12 [Example 63] , report its measured Ki.
Response line: 65 nM

Prompt line: Given the entry CCn1nccc1-c1c(-c2cccc(C#N)c2)nn2ccc(N3CC4CCC(C3)N4C)nc12 [Example 33.3] , report its measured Ki.
Response line: > 1000 nM

Prompt line: Given the entry Cc1ccc(-c2nn3ccc(NCc4ccccc4)nc3c2C#N)o1 [Example 64] , report its measured Ki.
Response line: 41 nM

Prompt line: Given the entry Cc1cc(-c2c(-c3cccc(C#N)c3)nn3ccc(N4CC5CCC(C4)N5C)nc23)cc(Cl)n1 [Example 2.2] , report its measured Ki.
Response line: > 1000 nM

Prompt line: Given the entry Cc1cc(-c2c(-c3cccc(C#N)c3)nn3ccc(C(N)=O)nc23)cc(Cl)n1 [Example 5.6] , report its measured Ki.
Response line: > 1000 nM

Prompt line: Given the entry Cc1cc(-c2c(-c3cccc(C#N)c3)nn3ccc(NC(=N)N)nc23)cc(Cl)n1 [Example 16.1] , report its measured Ki.
Response line: 2600 nM

Prompt line: Given the entry CCn1nccc1-c1c(-c2cccc(C#N)c2)nn2ccc(N)nc12 [Example 1.3] , report its measured Ki.
Response line: > 1000 nM

Prompt line: Given the entry Cc1cc(-c2c(-c3cccc(C#N)c3)nn3ccc(C(=O)N[C@H]4CNC[C@H]4O)nc23)cc(Cl)n1 [Example 7.2] , report its measured Ki.
Response line: > 1000 nM

Prompt line: Given the entry Cc1cc(-c2c(-c3cccc(C#N)c3)nn3ccc(NCC(C)(C)O)nc23)cc(Cl)n1 [Example 2] , report its measured Ki.
Response line: > 1000 nM

Prompt line: Given the entry Cc1cc(-c2c(-c3cccc(C#N)c3)nn3ccc(C(C)(C)O)nc23)cc(Cl)n1 [Example 8] , report its measured Ki.
Response line: > 1000 nM

Prompt line: Given the entry Cc1cc(-c2c(-c3cccc(C#N)c3)nn3ccc(N)nc23)cc(N(C)C)n1 [Example 29] , report its measured Ki.
Response line: > 1000 nM
